assay: Bioavailability after administration by inhalation; conditions: in vivo, inhaled or intranasal; administered by inhalation as spherically nanostructured microparticles; based on the fine fraction of the formulation (FPD, USP 24 Suppl. 2000)
observed_property: bioavailability

Entry under test: NCCCC[C@H](NC(=O)[C@@H](Cc1cc(Br)c(O)c(Br)c1)NC(=O)N1CCC(N2Cc3ccccc3NC2=O)CC1)C(=O)N1CCN(c2ccncc2)CC1 . Its bioavailability was ~60%
